# System: CCRIS mutagenicity, Ames/micronucleus/aberration tests
# assay.protocol: CCRIS mutagenicity studies
# experimental.setup: Test System: AMES SALMONELLA TYPHIMURIUM; Strain/Indicator: TA98; Metabolic Activation: RAT, LIVER, S-9, AROCLOR 1254; Method: STANDARD PLATE
Activity calls are given as the source filed them. How the calls were made is not given here.
endpoint.name: mutagenic call

COc1ccc2[nH]cc(CCNC(C)=O)c2c1; inactive; negative
Nc1ccc(Cl)c(Cl)c1Cl; inactive; negative
CC(C)(Cl)Cl; inactive; negative
CN(C)C(=O)Oc1ccc[n+](C)c1; inactive; negative
CC(=O)[C@]1(O)Cc2c(O)c3c(c(O)c2[C@@H](O)C1)C(=O)c1c(O)cccc1C3=O; active; positive
COC(=O)c1ccc(O)cc1; inactive; negative
O=[N+]([O-])c1ccc(Sc2ccccc2)cc1; active; positive
CN(C)C(=O)c1nc2n(n1)-c1ccc(Cl)cc1C(c1ccccc1Cl)=NC2; inactive; negative
Nc1ccc(/C=C/c2ccccc2)cc1; active; positive
O=S(=O)(Nc1ccc(Cl)cc1)c1cccc2cccnc12; inactive; negative
O=[N+]([O-])c1ccc2c3c(cccc13)-c1ccccc1-2; active; positive
Nc1ccc(Sc2ccccc2)cc1; active; positive
COCC=O; inactive; negative
CCN(CCC#N)c1ccc(N=Nc2c(Cl)cc([N+](=O)[O-])cc2Cl)cc1; active; positive
O=C(CCCN1CCN(c2ccccn2)CC1)c1ccc(F)cc1; inactive; negative
Nc1ccc(Cl)c(C(F)(F)F)c1; inactive; negative
COc1c(Cl)ccc(Cl)c1C(=O)O; inactive; negative
C=CCC1OC(=O)C=CC1O (configuration not stated); inactive; negative
ClC(Cl)=C(Cl)c1ccc(Cl)c(Cl)c1Cl; inactive; negative
O=S(=O)(O)c1cccc2cccnc12; inactive; negative
C#C[C@]1(O)CC[C@H]2[C@@H]3CCC4=C(CCC(=O)C4)[C@H]3CC[C@@]21C; inactive; negative
COc1ccc2cc1Oc1ccc(cc1)C[C@H]1c3cc(c(OC)cc3CCN1C)Oc1c(OC)c(OC)cc3c1[C@H](C2)N(C)CC3; active; positive

* * *

# Test system: CCRIS mutagenicity, Ames/micronucleus/aberration tests
# assay.protocol: CCRIS mutagenicity studies
# experimental.setup: Test System: AMES SALMONELLA TYPHIMURIUM; Strain/Indicator: TA102; Metabolic Activation: NONE; Method: PREINCUBATION
Activity calls are given as the source filed them. No rule for the calls is given here.
Classes used: TRUE for active, FALSE for inactive

Cc1ccccc1Br; FALSE
Cc1c2ccccc2cc2ccc3c(c12)C=CC(=O)C3=O; FALSE
COc1ccc(O)c(C(C)(C)C)c1; FALSE
Cc1c(N)nc([C@H](CC(N)=O)NC[C@H](N)C(N)=O)nc1C(=O)N[C@H](C(=O)N[C@H](C)[C@@H](O)[C@H](C)C(=O)N[C@H](C(=O)NCCc1nc(-c2nc(C(=O)NCCCN(C)CCCN(Cc3ccc(OCc4ccccc4)c(OCc4ccccc4)c3)Cc3ccc(OCc4ccccc4)c(OCc4ccccc4)c3)cs2)cs1)[C@@H](C)O)[C@@H](O[C@@H]1O[C@@H](CO)[C@@H](O)[C@H](O)[C@@H]1O[C@H]1O[C@H](CO)[C@@H](O)[C@H](OC(N)=O)[C@@H]1O)c1cnc[nH]1; TRUE
O=C(O)c1ccc(/C=N/n2nnc3c([nH]c4ccccc43)c2=O)cc1; FALSE

Cited source for all entries: PubChem BioAssay AID1259407
